experiment: Kinetic solubility in FeSSIF, FaSSIF and pH 7.4 PBS (HPLC); format: physicochemical; conditions: FaSSIF, 37 °C, pH 6.5, fassif, thermodynamic from solid, FaSSIF (pH 6.5, 37° C.), 24 hours
readoutType: solubility at 24 h (µg/mL)
# value in µg/mL; strip the unit string

# input May I ask what solubility at 24 h has been recorded for CC[C@@H]1CN(C(=O)NCC(F)(F)F)C[C@@H]1c1cnc2cnc3[nH]ccc3n12 [Form CSVI] ?
# output 1870

These data points were gathered from patent US11572365B2.
